Target: SF3b complexes (Homo sapiens, UniProt O75533+Q7RTV0)
Construct: endogenous in cells; host or cells: Nuclear extracts; A HeLa S3 extract preparation is described for the in vitro splicing assay
Test: Scintillation proximity assay (SPA) with [3H]-labelled pladienolide probe
Type: binding
Details: SF3B1 (WT); geometric mean; read-out: SPA-ATS GMean IC50 (nM) SF3B1 (WT)
Experimental: Scintillation Proximity Assay (SPA) with [^3-H]-Labelled Pladienolide Probe Batch immobilization of anti-SF3B1 antibody (MBL) to anti-mouse PVT SPA scintillation beads (PerkinElmer) was prepared as follows: for every 2.5 mg of nuclear extracts, 5 μg anti-SF3B1 antibody and 1.5 mg of beads were mixed in 150 μl PBS. […] The mixture was incubated for 30 min, and luminescence signals were read using a MicroBeta2 Plate Counter (PerkinElmer). […]
Below, each of the molecules is paired with its reported IC50 value.

- Molecule: "C/C(=C\\c1cc(F)cc(N2CCOCC2)c1)[C@H]1OC(=O)C[C@H](O)CC[C@H](C)[C@@H](OC(=O)N(C)C2CCCN(C)C2)/C=C/[C@@H]1C (some centres unmarked)"
  Units label: "nM"
  IC50: 2.27
- Molecule: "C/C(=C\\c1cc(F)cc(N2CCOCC2)c1)[C@H]1OC(=O)C[C@H](O)CC[C@H](C)[C@@H](OC(=O)N(C)C2CCN(C)CC2)/C=C/[C@@H]1C"
  Units label: "nM"
  IC50: 5.76
- Molecule: "C/C(=C\\c1ccc2cn[nH]c2c1)[C@H]1OC(=O)C[C@H](O)CC[C@H](C)[C@@H](OC(=O)N2CCN(C)CC2)/C=C/[C@@H]1C"
  Units label: "nM"
  IC50: 3.8
- Molecule: "C/C(=C\\c1cc(F)cc(N2CCN(CC(=O)c3cnccn3)CC2)c1)[C@H]1OC(=O)C[C@H](O)CC[C@H](C)[C@@H](OC(=O)N2CCN(C)CC2)/C=C/[C@@H]1C"
  Units label: "nM"
  IC50: 4.74
- Molecule: "C/C(=C\\c1cc(F)cc(N2CCOCC2)c1)[C@H]1OC(=O)C[C@H](O)CC[C@H](C)[C@@H](OC(=O)N2CCN(CCO)CC2)/C=C/[C@@H]1C"
  Units label: "nM"
  IC50: 10.3

###

Test system: Panc 05.04 cells (SF3b K700E mutant)
Assay: Cell proliferation and viability, CellTiter-Glo, 72 hours
Type: cell-based
Conditions: PANC0504.1 cells, 72 h; −100% cidal, 0% static, 100% maximal growth
Kind request: treat -90% as inclusive, so CTGlo-ATS Mean MinResponse % 72 h PANC0504.1 at -90% or higher is 1.0, anything lower is 0.0.

- Compound: "C/C(=C\\c1cc(F)cc(N2CCOCC2)c1)[C@H]1OC(=O)C[C@H](O)CC[C@@](C)(O)C(OC(=O)N2CCN(C)CC2)/C=C/[C@@H]1C (stereo in doubt) [Compound 86]"
  System under test: "Panc 05.04 cells (SF3b K700E mutant)"
  Assigned class: 0.0
- Compound: "C/C(=C\\c1ccc(S(=O)(=O)NC2CCCC2)cc1F)[C@H]1OC(=O)C[C@H](O)CC[C@H](C)[C@@H](OC(=O)N2CCN(C)CC2)/C=C/[C@@H]1C [Compound 57]"
  System under test: "Panc 05.04 cells (SF3b K700E mutant)"
  Assigned class: 1.0
